// provenance: ChEMBL document CHEMBL1201862

- Test system: SF-539
- assayText: NCI tumour cell line growth inhibition, 48 h
The source made the active and inactive calls. Rule as the data show it: active = GI50 up to about 1.1 µM and inactive = higher.
Would you mind answering with one of these outcomes? label 1 (active), label 0 (inactive)

molecule: CC(=O)OCC1OC(n2c(-c3ccccc3)c(/N=N/c3ccccc3)c(C)c(C#N)c2=S)C(OC(C)=O)C(OC(C)=O)C1OC(C)=O (stereo not given)
classification: label 0
--
molecule: Oc1ccc(CCc2cc(O)cc(O)c2)cc1 [DIHYDRORESVERATROL]
classification: label 0
--
molecule: COC(=O)c1ccccc1C1CN=NC12Cc1c(C)cc(C)cc1C2=O (stereo not given)
classification: label 0
--
molecule: COc1cc([C@@H]2c3cc4c(cc3[C@H](OC3OC5COC(C(C)C)OC5C(O)C3O)C3COC(=O)[C@@H]32)OCO4)cc(OC)c1OC (stereo not given in full)
classification: label 0

Input: // param item: "COc1ccc(S(=O)(=O)c2ccccc2[N+](=O)[O-])cc1" ; yields the recorded call
Output: label 0

Input: What about "C=C1C[C@H]2C=Nc3cc(OCCCOc4cc5c(cc4OC)C(=O)N4CC(=C)C[C@H]4C=N5)c(OC)cc3C(=O)N2C1" ?
Output: label 1

Input: What about Cc1cccc(NC(=O)CC(=O)N2N=C(N(CCC#N)c3ccc(Cl)cc3)CC2c2ccccc2)c1 (stereo not given) ?
Output: label 0

Input: What about "O=C1CC(=O)c2c(N3CCCC3)sc(N3CCCC3)c21" ?
Output: label 0

Input: What about "COC(=O)C1=C(C(=O)OC)SC(=C(/N=N/c2ccccc2)c2ccccc2)S1" ?
Output: label 0

Input: What about CN1C(=O)CCC2[C@@H]3CC=C4C[C@@H](O)CC[C@]4(C)C3CC[C@@]21C (stereo not given in full) ?
Output: label 0

Input: What about "CC(C)(C)c1ccc(O)c(C[N+](C)(C)C)c1" ?
Output: label 0

Input: What about "COc1ccc(/C=C2\C[C@H]3[C@@H]4CC=C5C[C@@H](OC(C)=O)CC[C@]5(C)[C@H]4CC[C@]3(C)C2=O)cc1OC" ?
Output: label 0

Input: What about "NNC(=O)c1nnn(N)c1S" ?
Output: label 0

Input: What about COc1ccc2c3c1O[C@H]1C(O)CCC4(O)[C@@H](C2)NCC[C@]314 (stereo not given in full) ?
Output: label 0

Input: What about "O=[N+]([O-])/C=C1\COCc2cc3c(cc21)OCO3" ?
Output: label 0

Input: What about O=C(NN1C(=O)CSC1c1ccc(Cl)c(Cl)c1)c1ccncc1 (stereo not given) ?
Output: label 0

Input: What about "NC(=S)N/N=C1\NC(=O)/C(=C/c2ccc3c(c2)OCO3)S1" ?
Output: label 0

Input: What about O=C(O)CCC1(c2ccccc2)NC(=O)NC1=O (stereo not given) ?
Output: label 0

Input: What about "O=C(N/C(=C\c1ccccc1)c1nc2ccccc2c(=O)o1)c1ccccc1" ?
Output: label 0

Input: What about "CCO/C=C1\SC(=S)N(c2ccc(OCC)cc2)C1=O" ?
Output: label 0
